Molecular target: T1, cynoCD46-His (cynomolgus, UniProt A0A2K5WCL8 35-328)
T1 construct: extracellular domain; Immobilised by amine coupling on the SPR chip; not shown: His tag
T1 sequence: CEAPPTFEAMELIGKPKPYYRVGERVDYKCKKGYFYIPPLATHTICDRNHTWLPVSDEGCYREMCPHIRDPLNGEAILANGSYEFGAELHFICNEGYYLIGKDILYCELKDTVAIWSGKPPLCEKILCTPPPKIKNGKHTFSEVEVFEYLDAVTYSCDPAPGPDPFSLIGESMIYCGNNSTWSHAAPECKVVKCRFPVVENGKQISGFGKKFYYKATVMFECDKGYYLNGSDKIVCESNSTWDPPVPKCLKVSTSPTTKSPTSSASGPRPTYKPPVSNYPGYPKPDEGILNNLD
Assay: SPR, cynoCD46-His immobilised, antibody as analyte, pH 7.4
parameter.measured: pKd
In plain terms, pKd is the concentration in mol/L turned into minus its base-10 logarithm.

- binder: "BA-133-04-04 (antibody, V domains shown, the killing assays used the ADC form; also called CPE hit BA133-04-04) VH: EVQLVESGGGLVQPGGSLRLSCAASGGSVSSYDISWIRQSPSRGLEWLGVIWTDGGTNYNSAFMSRFTISRDDSKNTAYLQMNSLKTEDTAVYYCERVYDGYPWFAYWGQGTLVTVSS VL: AIQLTQSPSSLSASVGDRVTITCRASQGISNYLNWYLQKPGQSPQLLIYYTSSLHEGVPDRFSGSGSGTDFTLKISRVEAEDVGVYYCQQYIKLPWTFGQGTKVEIK"
  parameter.measured: "pKd"
  reported: 8.64
- binder: "Benchmark (BM) BA-133-00-01 (antibody, V domains shown, the killing assays used the ADC form; Conjugation site and payload are not described; also called BM (bench mark)) VH: QVQLQESGPGLVKPSETLSLTCTVSGGSVSSYDISWIRQPPGKGLEWIGVIWTDGGTNYNSAFMSRVTISVDTSKNQFSLKLSSVTAADTAVYYCARVYDGYPWFAYWGQGTLVTVSS VL: DIQMTQSPSSLSASVGDRVTITCRASQGISNYLNWYQQKPGKAPKLLIYYTSSLHSGVPSRFSGSGSGTDFTLTISSLQPEDFATYYCQQYIKLPWTFGGGTKLEIKR"
  parameter.measured: "pKd"
  reported: 9.04

Query string: Quick check: pKd of BAP133-2-03-03-SL (antibody, V domains shown, the killing assays used the ADC form; also called BAP133-02-03-03-SL; CPE hit BAP133-2-03-03-SL) VH: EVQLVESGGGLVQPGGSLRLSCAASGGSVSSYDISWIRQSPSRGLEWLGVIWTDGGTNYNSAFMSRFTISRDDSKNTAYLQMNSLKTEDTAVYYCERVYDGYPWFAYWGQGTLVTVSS VL: AIQLTQSPSSLSASVGDRVTITCRASQGISNYLNWYLQKPGQSPQLLIYYTSSLHSGVPDRFSGSGSGTDFTLKISRVEAEDVGVYYCQQYIKLPWTFGQGTKVEIK ?
Result string: 8.26
